Reported Ratio/FWT values for a set of binders
Biological target: T1, FcRn-p3 fusion protein (human, UniProt P55899 24-297; P61769 21-119)
T1 construct: baculovirus expressed; coated on ELISA wells; not shown: amino terminal part of bacteriophage p3 protein and CVDE protein
T1 sequence (P55899 24-297, chain 1 of 2): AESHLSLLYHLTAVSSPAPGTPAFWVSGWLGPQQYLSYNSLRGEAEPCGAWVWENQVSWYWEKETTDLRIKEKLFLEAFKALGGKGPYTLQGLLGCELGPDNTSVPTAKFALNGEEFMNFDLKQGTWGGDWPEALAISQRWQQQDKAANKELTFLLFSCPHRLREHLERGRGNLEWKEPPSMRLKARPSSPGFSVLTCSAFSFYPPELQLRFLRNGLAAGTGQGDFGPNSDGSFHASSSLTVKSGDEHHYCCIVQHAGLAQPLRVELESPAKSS
T1 sequence (P61769 21-119, chain 2 of 2): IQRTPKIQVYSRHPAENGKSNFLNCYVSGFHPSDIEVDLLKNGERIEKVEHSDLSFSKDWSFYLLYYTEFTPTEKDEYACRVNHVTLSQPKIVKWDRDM
Assay: phage ELISA pH6 (est.)
value-kind: Ratio/FWT (fold)

INSERT INTO assay_data (binder, u, value_reported) VALUES
  ('T7A_17 (other, EU numbering) CPPCPAPELLGGPSVFLFPPKPKDTLMISRTPEVTCVVEDVSHEDPEVKFNWYVDGVEVHNAKTKSREEQYNSTYRVVSVLTVLHQDWLNGKEYKCKVSNKALPAPIEKTISKAKGQPREPQVYTLPPSRDELTKNRVSLTCLVKGFYPSDIVVEWESNGQPENNYKTTPPVLDSDGSFFLYSKLTVDKSRWQQGNVFSCSVMHEALHYHYTQKSLSLSPGK', 'fold', 6.3),
  ('C3A_31 (other, EU numbering) CPPCPAPELLGGPSVFLFPPKPKDTLMISRTPEVTCVVVDVSHEDPEVKFNWYVDGVEVHNAKTKPREEQYNSTYRVVSVLTVLHQDWLDGKEYKCKVSNKALPVPIEKTISKAKGQPREPQVYTLPPSRDELTKNQVSLTCLVKGFYPSDIAVEWESNGQPEKNYKTTPPVLDSGGSFFLYSKLTVDKSRWQQGNVFSCSVMHEALHYHYTQKSLSLSPGK', 'fold', 6.9);
